Parameter: pIC50. Scope: all listed entries.
# Assayed system: Cholinesterase (Equus caballus, UniProt P81908)
# Sequence (P81908 whole entry): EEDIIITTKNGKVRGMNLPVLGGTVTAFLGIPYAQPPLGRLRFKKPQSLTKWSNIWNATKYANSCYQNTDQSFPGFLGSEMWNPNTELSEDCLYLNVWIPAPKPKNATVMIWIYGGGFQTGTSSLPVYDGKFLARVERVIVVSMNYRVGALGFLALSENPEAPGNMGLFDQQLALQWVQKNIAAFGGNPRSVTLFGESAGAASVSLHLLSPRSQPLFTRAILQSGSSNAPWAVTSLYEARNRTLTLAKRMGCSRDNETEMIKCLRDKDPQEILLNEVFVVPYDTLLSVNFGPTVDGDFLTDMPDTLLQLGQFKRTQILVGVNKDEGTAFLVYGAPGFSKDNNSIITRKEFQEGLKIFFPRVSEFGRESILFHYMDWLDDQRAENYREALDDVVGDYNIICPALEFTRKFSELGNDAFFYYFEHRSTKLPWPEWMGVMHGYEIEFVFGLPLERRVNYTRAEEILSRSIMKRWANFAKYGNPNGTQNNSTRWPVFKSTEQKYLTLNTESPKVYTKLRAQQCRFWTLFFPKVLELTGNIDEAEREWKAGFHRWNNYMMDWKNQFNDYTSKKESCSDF
By convention, pIC50 is the negative base-10 log of a molar concentration.

compound="CC(C)c1ccc(C(=O)CC(C(=O)Nc2ccccc2)N2CCOCC2)c(C(C)C)c1 (racemic)" measured_value=5.61

Task: Can you share its pIC50? I mean this compound: CC(C)c1ccc(C(=O)CC(C(=O)Nc2ccccc2)N2CCCCC2)cc1 (racemic)
Output: 5.15

---

Reported IC50 for target or system Cholinesterase (Equus caballus, UniProt P81908), by entry.
I only need the number, in µM, no unit after it.

Sample answers from the record:
compound="Cc1ccc(C)c(C(=O)CC(C(=O)Nc2ccccc2)N2CCCCC2)c1 (racemic)" assayed_system="Cholinesterase (Equus caballus, UniProt P81908)" measured_value=17.2
compound="Cc1ccc(C)c(C(=O)CC(C(=O)Nc2ccccc2)N2CCOCC2)c1 (racemic)" assayed_system="Cholinesterase (Equus caballus, UniProt P81908)" measured_value=34.1

Task: // IC50 lookup, key: COc1ccc(C(=O)CC(C(=O)Nc2ccccc2)n2ccnc2)cc1 (racemic)
Output: 30.4

---

// reported pIC50 for each item listed
# Assayed system: Acetylcholinesterase (Electrophorus electricus, UniProt O42275)
# Sequence (O42275 whole entry): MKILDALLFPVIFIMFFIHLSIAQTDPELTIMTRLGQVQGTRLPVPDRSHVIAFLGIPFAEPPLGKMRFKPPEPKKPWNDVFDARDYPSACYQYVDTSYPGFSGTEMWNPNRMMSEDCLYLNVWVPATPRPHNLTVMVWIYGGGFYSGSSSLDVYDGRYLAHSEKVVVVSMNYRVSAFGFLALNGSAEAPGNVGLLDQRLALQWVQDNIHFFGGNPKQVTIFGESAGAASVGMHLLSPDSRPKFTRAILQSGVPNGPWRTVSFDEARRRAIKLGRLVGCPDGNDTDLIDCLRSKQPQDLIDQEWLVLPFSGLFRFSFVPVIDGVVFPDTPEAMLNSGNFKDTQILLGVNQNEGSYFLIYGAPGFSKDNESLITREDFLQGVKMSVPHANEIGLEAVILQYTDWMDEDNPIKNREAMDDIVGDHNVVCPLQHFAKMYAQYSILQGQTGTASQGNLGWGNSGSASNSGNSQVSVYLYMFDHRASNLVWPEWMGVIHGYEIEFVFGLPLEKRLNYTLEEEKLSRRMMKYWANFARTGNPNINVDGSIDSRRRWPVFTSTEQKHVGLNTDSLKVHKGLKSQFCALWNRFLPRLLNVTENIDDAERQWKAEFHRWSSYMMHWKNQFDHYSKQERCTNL
pIC50: −log10 of the molar value.

Before answering, review these 8 worked examples.
molecule="Cc1ccc(C)c(C(=O)CC(C(=O)Nc2ccccc2)n2ccnc2)c1 (racemic)" outcome_measure=pIC50 measured_value=4.56
molecule="Cc1ccc(C)c(C(=O)CC(C(=O)Nc2ccccc2)N2CCOCC2)c1 (racemic)" outcome_measure=pIC50 measured_value="< 4.00"
molecule="CC(C)c1ccc(C(=O)CC(C(=O)Nc2ccccc2)N2CCOCC2)cc1 (racemic)" outcome_measure=pIC50 measured_value="< 4.00"
molecule="O=C(CC(C(=O)Nc1ccccc1)N1CCOCC1)c1ccc2c(c1)CCCC2 (racemic)" outcome_measure=pIC50 measured_value="< 4.52"
molecule="Cc1ccc(C)c(C(=O)CC(C(=O)Nc2ccccc2)N2CCCCC2)c1 (racemic)" outcome_measure=pIC50 measured_value="< 5.00"
molecule="COc1ccc(C(=O)CC(C(=O)Nc2ccccc2)n2ccnc2)cc1 (racemic)" outcome_measure=pIC50 measured_value=5.11
molecule="O=C(CC(C(=O)Nc1ccccc1)N1CCCCC1)c1ccccc1 (racemic)" outcome_measure=pIC50 measured_value="< 4.00"
molecule="COc1ccc(C(=O)CC(C(=O)Nc2ccccc2)N2CCCCC2)cc1 (racemic)" outcome_measure=pIC50 measured_value="< 5.00"

Pending molecule:
Task: If you can, please state the reported pIC50 value of O=C(CC(C(=O)Nc1ccccc1)N1CCOCC1)c1ccccc1 (racemic) .
Output: < 4.00

---

Observed IC50 values for Cholinesterase (Equus caballus) are listed in what follows.

// worked examples, IC50 included
molecule="Cc1ccc(C)c(C(=O)CC(NCCCCCCCCNC(CC(=O)c2cc(C)ccc2C)C(=O)Nc2ccccc2)C(=O)Nc2ccccc2)c1 (mixture of isomers)" measured_value=ND(Insoluble)
molecule="O=C(CC(C(=O)Nc1ccccc1)N1CCOCC1)c1ccc(Cl)cc1 (racemic)" measured_value=ND(Insoluble)
molecule="O=C(CC(C(=O)Nc1ccccc1)N1CCCCC1)c1ccc(Cl)cc1 (racemic)" measured_value=ND(Insoluble)
molecule="O=C(CC(NCCCCCCCCNC(CC(=O)c1ccc(Cl)cc1)C(=O)Nc1ccccc1)C(=O)Nc1ccccc1)c1ccc(Cl)cc1 (mixture of isomers)" measured_value=ND(Insoluble)

Task: Item O=C(CC(NCCCCCCCCNC(CC(=O)c1ccc2c(c1)CCCC2)C(=O)Nc1ccccc1)C(=O)Nc1ccccc1)c1ccc2c(c1)CCCC2 (mixture of isomers) has what recorded IC50?
Output: ND(Insoluble)

Task: Now the same for COc1ccc(C(=O)CC(NCCCCCCCCNC(CC(=O)c2ccc(OC)cc2)C(=O)Nc2ccccc2)C(=O)Nc2ccccc2)cc1 (mixture of isomers)
Output: ND(Insoluble)

Task: Next molecule up: O=C(CC(C(=O)Nc1ccccc1)n1ccnc1)c1ccc(Cl)cc1 (racemic)
Output: ND(Insoluble)

Task: Then this molecule: CC(C)c1ccc(C(=O)CC(NCCCCCCCCNC(CC(=O)c2ccc(C(C)C)cc2)C(=O)Nc2ccccc2)C(=O)Nc2ccccc2)cc1 (mixture of isomers)
Output: ND(Insoluble)

Task: Could you do the same for CC(C)c1ccc(C(=O)CC(NCCCCCCCCNC(CC(=O)c2ccc(C(C)C)cc2C(C)C)C(=O)Nc2ccccc2)C(=O)Nc2ccccc2)c(C(C)C)c1 (mixture of isomers) , please?
Output: ND(Insoluble)

---

pIC50: −log10 of the molar value.
Let's go through some pIC50 measurements on Cholinesterase (Equus caballus, UniProt P81908) together.

Worked set:
compound="CC(C)c1ccc(C(=O)CC(C(=O)Nc2ccccc2)n2ccnc2)c(C(C)C)c1 (racemic)" assayed_system="Cholinesterase (Equus caballus, UniProt P81908)" outcome_measure=pIC50 measured_value="< 4.70"
compound="COc1ccc(C(=O)CC(C(=O)Nc2ccccc2)N2CCOCC2)cc1 (racemic)" assayed_system="Cholinesterase (Equus caballus, UniProt P81908)" outcome_measure=pIC50 measured_value="< 4.00"

Let's switch to this compound now.
Task: Value lookup for pIC50; key = COc1ccc(C(=O)CC(C(=O)Nc2ccccc2)N2CCCCC2)cc1 (racemic)
Output: < 4.40
